target: MCH receptor (Homo sapiens, UniProt Q99705); assay: FLIPR/FDSS6000 functional assay: intracellular Ca2+ changes evoked by MCH; type: cell-based; settings: class by percent of control at 10^−7 M or by IC50; antagonist activity, 50 nM of MCH; read-out: class
pIC50: −log10 of the molar value. Counter-ions that a name gives are not always drawn.

COMPOUND | pIC50
CN(C)c1cc(N[C@H]2CC[C@@H](NC(=O)c3ccc(F)c(F)c3)CC2)nc(N(C)C)n1 [Example 33, hydrochloride] | 6.70 to 7.30
Cc1nc(N[C@H]2CC[C@@H](NC(=O)Oc3ccc(Br)cc3)CC2)cc(N(C)C)n1 [Example 184] | < 6.70
O=C(N[C@H]1CC[C@@H](Nc2ncnc3[nH]ccc23)CC1)c1ccc(F)c(Cl)c1 [Example 186, hydrochloride] | < 6.70
Cc1nc(N[C@H]2CC[C@@H](NC(=O)c3ccc(F)c(Cl)c3)CC2)cc(N2CCCC2)n1 [Example 40, hydrochloride] | > 7.30
